Source: PubChem BioAssay (NCI)

System: TK-10 renal
Assay: NCI tumour cell line growth inhibition, 48 h; in the data active = GI50 below about 0.43 µM; inactive = the rest
Please answer using one outcome listed in True for active, False for inactive

Cc1ccc(CNc2ccc(Cl)cc2NCc2ccc(C)c(O)c2)cc1O
False
C=CN(C(=O)N1CCN(c2cc3c(cc2F)c(=O)c(C(=O)O)cn3C2CC2)CC1)c1nc(-c2ccc(C)cc2)cs1
False
CNC(=S)N/N=C/CSC/C=N/NC(=S)NC
False

(Q) Which result was noted for this compound in the test: N/C(=N\O)c1cn(C2OC(CO)C(O)C2O)c2ncnc(N)c12 (stereo not given)
(A) True

(Q) What is the recorded call for this compound in the test? `COc1ccc2c(c1)c(-c1nc(-c3cn(C)c4ncccc34)cs1)cn2CCCCN1CCCCC1`
(A) False

----------
Tested on: SK-MEL-2 melanoma
Assay: NCI tumour cell line growth inhibition, 48 h
Give measured log10 of TGI for each item. Keep answers brief.
Scale: decimal log of TGI, TGI in µM.

COc1cc(-c2nn(-c3cccc(NC(=O)NCCNC(=O)c4ccccc4)c3)cc2-c2ccncc2)ccc1Cl
0.73
O=[N+]([O-])C1=Cc2c(O)ccc(O)c2C2c3ccccc3NC12 (stereo not given)
1.60
Cc1ccc(Nc2nc3ccccc3nc2NS(=O)(=O)c2ccc(N)cc2)cc1
1.91
Cc1c(S(=O)(=O)/N=C(\NO)Nc2ccc(Cl)cc2)sc2ccc(Cl)cc12
1.54
CC(=O)[O-].O=C([CH-]C(=O)c1ccccc1)c1ccccc1.O=C([CH-]C(=O)c1ccccc1)c1ccccc1.[Dy+3]
1.57
Nc1nc(NCc2ccccc2)cc(NCc2ccccc2)n1
1.49
COc1ccc(CC(COS(=O)(=O)c2ccc(C)cc2)NS(=O)(=O)c2ccc(C)cc2)cc1 (stereo not given)
1.65
CS(=O)(=O)Sc1ccc(Cl)cc1
1.41

For each of the compounds below, state log10 of TGI.
1. COc1ccc(-c2cc(-c3ccc(Cl)cc3)c(C#N)c(=O)n2CCCCCC(=O)Nc2ccccc2N)cc1
2. O=C(c1ccco1)c1c(C(F)(F)F)n([O-])c2cc(Cl)c(Cl)cc2[n+]1=O
3. CCC[CH2][Sn]1([CH2]CCC)[O]C(=O)c2cccnc2[S]1
4. C[C@@H](NC(=O)Nc1cccc(C(=O)Nc2cc(C(C)(C)C)ccc2C(=O)O)n1)c1ccccc1

(A)
1.52
0.95
0.67
1.59

----------
System: RXF 393 renal
Assay: NCI tumour cell line growth inhibition, 48 h
Assay Metric: TGI (µM)
Give bare numbers, in µM.

Go through the list and state TGI for each entry.
1. CC12CCC(C(=Nc3ccc([N+](=O)[O-])cc3)C1=O)C2(C)C (stereo not given)
2. COc1cc2nc(NC3CCC3)nc(NC3CCN(C(C)C)CC3)c2cc1OC
3. CCC[CH2][Sn]1([CH2]CCC)[O]C(=O)c2cccnc2[S]1
4. CCN(CC)CCCC(C)Nc1ccnc2cc(OC)ccc12 (stereo not given)
5. COc1cnc2c(c1)C(=O)c1c-2n(CCCN2CCNCC2)c(=O)c2cc(F)ccc12
6. COc1ccc(Cc2nc3cc(C(F)(F)F)ccc3n2C[C@@H]2CCCN3CCCCC23)cc1 (stereo not given in full)

(A)
1. 44.9
2. 2.85
3. 3.2
4. 35.5
5. 1.73
6. 22.3

compound CC1(C)OC2OC(/C=C/[N+](=O)[O-])C3OC(C)(C)OC3C2O1 (stereo not given) , TGI observed: 5.99
